Target: CIB1 and αIIb interaction (CIB1-GST : F-αIIb peptide) (Homo sapiens, UniProt Q99828)
Construct: made in house; host or cells: BL-21 plus RIL cells (E. coli)
Sequence (Q99828 whole entry): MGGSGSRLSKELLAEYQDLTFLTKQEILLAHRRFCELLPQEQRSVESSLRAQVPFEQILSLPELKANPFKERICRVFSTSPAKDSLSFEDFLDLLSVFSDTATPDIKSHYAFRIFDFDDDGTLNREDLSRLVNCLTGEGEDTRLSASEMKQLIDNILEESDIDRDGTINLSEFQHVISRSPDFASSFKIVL
Assay: FP assay, 1536-well qHTS format (primary and confirmatory screen)
Format: binding
Settings: qHTS primary screen hits, Table S2; read-out: IC50
pIC50: −log10 of the molar value.
measured_attribute: pIC50

[[record]]
compound = "COc1cccc(-n2c(SCc3cc(=O)oc4cc(O)c(O)cc34)nc3ccccc3c2=O)c1.O=C(O)C(F)(F)F"
measured_attribute = "pIC50"
measured_number = 5.35

[[record]]
compound = "COCc1ccc(-c2nn(Cc3ccccc3)c3ccccc23)o1"
measured_attribute = "pIC50"
measured_number = 4.25

[[record]]
compound = "O=C(O)C(F)(F)F.O=C1CC(c2c(F)cccc2F)c2sc(N3CCOCC3)nc2N1 (stereo not shown)"
measured_attribute = "pIC50"
measured_number = 4.25

[[record]]
compound = "CO[C@@H]1C(N(C)C(=O)c2ccccc2)C[C@H]2O[C@]1(C)n1c3ccccc3c3c4c(c5c6ccccc6n2c5c31)C(=O)NC4=O (stereo partly shown)"
measured_attribute = "pIC50"
measured_number = 4.72


====

Biological target: CIB1 and αIIb interaction (CIB1-GST : F-αIIb peptide) (Homo sapiens)
Construct: made in house; host or cells: BL-21 plus RIL cells (E. coli)
Assay: FP assay, 1536-well qHTS format (primary and confirmatory screen)
Assay type: binding
Conditions: qHTS primary screen hits, Table S2; negative sign = inhibitory curve; several classes where COUNT > 1
measured_attribute: Curve Class

[[record]]
compound = "O=C(O)C(F)(F)F.Oc1cccc2c(-c3nnn[nH]3)ccnc12"
measured_number = -1.2

[[record]]
compound = "CCCCCCCCCCCCCCCC[n+]1ccccc1.[Br-]"
measured_number = -2.4

[[record]]
compound = "CO/N=C(/C(=O)N[C@@H]1C(=O)N2C(C(=O)[O-])=C(C[n+]3ccn4ncccc43)CS[C@H]12)c1nsc(N)n1"
measured_number = -2.4

[[record]]
compound = "CS(=O)(=O)c1ccc(C(=O)C2C(=O)CCCC2=O)c([N+](=O)[O-])c1"
measured_number = -2.4

[[record]]
compound = "O=C(O)C(F)(F)F.OCc1ccc(-c2ccc3ncnc(NCc4ncc[nH]4)c3c2)o1"
measured_number = -2.4

[[record]]
compound = "COc1cccc(-n2c(SCc3cc(=O)oc4cc(O)c(O)cc34)nc3ccccc3c2=O)c1.O=C(O)C(F)(F)F"
measured_number = -1.4

[[record]]
compound = "O=C(O)C(F)(F)F.O=C1CC(c2ccccc2Cl)c2sc(N3CCOCC3)nc2N1 (centres unmarked)"
measured_number = -2.2

[[record]]
compound = "Cc1ccccc1C(=O)N1CCc2cc(-c3nc(NC(=O)Cc4ccc(OCCOCCOCCN)cc4)sc3C)ccc21.O=C(O)C(F)(F)F"
measured_number = -1.4

[[record]]
compound = "O=[N+]([O-])c1cnc(Sc2nnc(O)n2-c2ccc3c(c2)OCCO3)s1"
measured_number = -2.2

[[record]]
compound = "O=Cc1ccc(O)c(O)c1O"
measured_number = -2.4

[[record]]
compound = "CN1CCCN=C1/C=C/c1cccs1.O=C(O)c1cc2ccccc2c(Cc2c(O)c(C(=O)O)cc3ccccc23)c1O"
measured_number = -2.4

[[record]]
compound = "COc1cc(NS(=O)(=O)c2ccc([N+](=O)[O-])cc2)c2ncccc2c1"
measured_number = -2.4

[[record]]
compound = "Cc1c(-c2cccc3c(CCCOc4cccc5ccccc45)c(C(=O)O)n(Cc4cccnc4)c23)c(COc2ccc(N3CCN(S(=O)(=O)N(C)C)CC3)cc2)nn1C"
measured_number = -3

[[record]]
compound = "COc1ccc2[nH]c([S+]([O-])Cc3ncc(C)c(OC)c3C)nc2c1 (centres unmarked)"
measured_number = -2.2

[[record]]
compound = "O=C(Nc1nc(-c2ccccc2)cs1)c1ccncc1NS(=O)(=O)c1cccc2cccnc12.O=C(O)C(F)(F)F"
measured_number = -2.2

[[record]]
compound = "NC(=O)c1ncn([C@@H]2O[C@H](CO)[C@@H](O)[C@H]2O)c1O"
measured_number = -1.2

[[record]]
compound = "O=C(O)C(F)(F)F.O=C1CCCC2=C1C(c1ccncc1)N=C(Nc1nc3ccccc3o1)N2 (centres unmarked)"
measured_number = -2.2

[[record]]
compound = "C[C@]12CC[C@@H]3c4ccc(OC(=O)N(CCCl)CCCl)cc4CC[C@H]3[C@@H]1CC[C@@H]2O"
measured_number = -2.2

[[record]]
compound = "Cl.Nc1ccc2cc3ccc(N)cc3nc2c1.Nc1ccc2cc3ccc(N)cc3nc2c1.O=S(=O)(O)O"
measured_number = -1.1

[[record]]
compound = "COc1ccnc2c1CCCCC2[S+]([O-])c1nc2ccccc2[nH]1 (centres unmarked)"
measured_number = -2.2

[[record]]
compound = "Cc1ccccc1C(=O)N1CCc2cc(-c3nc(NC(=O)Cc4cccc(OCCOCCOCCN)c4)sc3C)ccc21.O=C(O)C(F)(F)F"
measured_number = -2.4

[[record]]
compound = "O=C(O)C(F)(F)F.O=C1CCCC2=C1C(c1ncccc1C(F)(F)F)N=C(Nc1nc3ccccc3o1)N2 (centres unmarked)"
measured_number = -2.2

[[record]]
compound = "COc1cccc(-c2csc(NC(=O)c3ccncc3NS(=O)(=O)c3ccc(C)cc3)n2)c1.O=C(O)C(F)(F)F"
measured_number = -2.2

[[record]]
compound = "O=C(O)C(F)(F)F.O=C1CCC2=C1C1(CCCC1)N=C(Nc1nc3ccccc3o1)N2"
measured_number = -1.4

[[record]]
compound = "Cc1ccc2c(c1)/C(=C\\C(=O)c1cccs1)C(=O)N2.O=C(O)C(F)(F)F"
measured_number = -1.4

[[record]]
compound = "COc1cccc(S(=O)(=O)Nc2cnccc2C(=O)Nc2nc(-c3ccccc3)cs2)c1.O=C(O)C(F)(F)F"
measured_number = -2.2

[[record]]
compound = "CCN(CC)C(=O)N[C@@H]1C=C2c3cccc4[nH]cc(c34)C[C@@H]2N(C)C1"
measured_number = -2.4

[[record]]
compound = "CC(=O)NC(c1ccco1)c1cc(Br)c2cccnc2c1O.O=C(O)C(F)(F)F (centres unmarked)"
measured_number = -2.2

[[record]]
compound = "Cn1ccc(=Nc2ccc(NC(=O)c3ccc(/N=c4/ccn(C)c5ccc([N+](=O)[O-])cc45)cc3)cc2)cc1.O=C(O)C(F)(F)F"
measured_number = -2.4

